Listing: fold change of FzlA in pellet (with FtsZ vs. alone), low speed of selected binders
- tested-system: T1, FtsZ (purified, C. crescentus) (Caulobacter crescentus, UniProt B8H080 1-508)
- T1 construct: FtsZ, Caulobacter crescentus; In the assays it was polymerised with GTP and MgCl2; source: E. coli Rosetta (DE3) pLysS, purified as previously described (Sundararajan et al., 2015)
- T1 sequence (looked up): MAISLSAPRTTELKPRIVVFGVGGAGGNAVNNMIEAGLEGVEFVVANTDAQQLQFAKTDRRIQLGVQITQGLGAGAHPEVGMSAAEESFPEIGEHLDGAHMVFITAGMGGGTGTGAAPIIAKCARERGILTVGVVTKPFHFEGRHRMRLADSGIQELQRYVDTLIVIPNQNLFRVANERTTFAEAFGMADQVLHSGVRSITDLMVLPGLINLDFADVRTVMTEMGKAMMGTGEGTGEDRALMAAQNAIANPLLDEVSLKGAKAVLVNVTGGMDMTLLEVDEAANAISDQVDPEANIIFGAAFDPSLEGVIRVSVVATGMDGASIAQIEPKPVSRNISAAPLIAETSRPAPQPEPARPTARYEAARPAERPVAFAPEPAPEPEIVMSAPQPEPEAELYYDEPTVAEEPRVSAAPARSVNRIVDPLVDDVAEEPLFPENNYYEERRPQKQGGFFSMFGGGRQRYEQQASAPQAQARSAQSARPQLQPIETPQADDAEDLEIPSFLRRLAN
- test-method-notes: co-sedimentation; low speed co-pelleting (higher order structures): 4 µM FzlA variant ± 2 µM FtsZ, 50 mM MES pH 6.5, 50 mM KCl, 2.5 mM MgCl2, 2 mM GTP, 16 000 x g 15 min room temperature
- condition-parameters: both partners purified
measure-name: fold change of FzlA in pellet (with FtsZ vs. alone), low speed (fold)

binder	test-result
FzlA^NB1 (W38A R124D) (natural protein, Caulobacter crescentus, FzlA, Caulobacter crescentus, with W38A R124D; Self-aggregates under the standard conditions (pH 6.5, 2:1 FzlA:FtsZ); source: E. coli Rosetta (DE3) pLysS, purified (HisTrap, His6-SUMO cleaved)) MSVERTLHHFPLDPASRQVRLALGEKRLPFVEMQVRYAEMPPEFTSLNPSGMPPVLVETKHQRNLVICETRAILEHIEETETEPPLLGRDPAERAEARRLLQWFDRKFDNEVNGFLLHEKMEKDLLRMGAPDLAALRQGREALRMHLGYIESLLQTRDWLAGRRMSLADFAAAAHLSVIDYFGDVPWKDFQAAKTWYMKLKSRPCFRPILADRWPGLAPAAHYDDLDF	1.25
FzlA^UE1 (Y223A D227K F228A) (natural protein, Caulobacter crescentus, FzlA, Caulobacter crescentus, with Y223A D227K F228A; also called unknown essential activity; source: E. coli Rosetta (DE3) pLysS, purified (HisTrap, His6-SUMO cleaved)) MSVERTLHHFPLDPASRQVRLALGEKRLPFVEMQVRYWEMPPEFTSLNPSGMPPVLVETKHQRNLVICETRAILEHIEETETEPPLLGRDPAERAEARRLLQWFDRKFDNEVNGFLLHEKMEKRLLRMGAPDLAALRQGREALRMHLGYIESLLQTRDWLAGRRMSLADFAAAAHLSVIDYFGDVPWKDFQAAKTWYMKLKSRPCFRPILADRWPGLAPAAHADDLKA	6.1
untagged WT FzlA (natural protein, Caulobacter crescentus, FzlA, Caulobacter crescentus; source: E. coli Rosetta (DE3) pLysS, purified (HisTrap, His6-SUMO cleaved with His6-ULP, second HisTrap flow through)) MSVERTLHHFPLDPASRQVRLALGEKRLPFVEMQVRYWEMPPEFTSLNPSGMPPVLVETKHQRNLVICETRAILEHIEETETEPPLLGRDPAERAEARRLLQWFDRKFDNEVNGFLLHEKMEKRLLRMGAPDLAALRQGREALRMHLGYIESLLQTRDWLAGRRMSLADFAAAAHLSVIDYFGDVPWKDFQAAKTWYMKLKSRPCFRPILADRWPGLAPAAHYDDLDF	11.1
FzlA^NB2 (E119K) (natural protein, Caulobacter crescentus, FzlA, Caulobacter crescentus, with E119K; source: E. coli Rosetta (DE3) pLysS, purified (HisTrap, His6-SUMO cleaved)) MSVERTLHHFPLDPASRQVRLALGEKRLPFVEMQVRYWEMPPEFTSLNPSGMPPVLVETKHQRNLVICETRAILEHIEETETEPPLLGRDPAERAEARRLLQWFDRKFDNEVNGFLLHKKMEKRLLRMGAPDLAALRQGREALRMHLGYIESLLQTRDWLAGRRMSLADFAAAAHLSVIDYFGDVPWKDFQAAKTWYMKLKSRPCFRPILADRWPGLAPAAHYDDLDF	1.18

Entry source: paper PMC5760450
